# ASSAYED_TARGET: T1, canine CD20 (canine, UniProt Q3C2E2 1-297)
# T1 chain: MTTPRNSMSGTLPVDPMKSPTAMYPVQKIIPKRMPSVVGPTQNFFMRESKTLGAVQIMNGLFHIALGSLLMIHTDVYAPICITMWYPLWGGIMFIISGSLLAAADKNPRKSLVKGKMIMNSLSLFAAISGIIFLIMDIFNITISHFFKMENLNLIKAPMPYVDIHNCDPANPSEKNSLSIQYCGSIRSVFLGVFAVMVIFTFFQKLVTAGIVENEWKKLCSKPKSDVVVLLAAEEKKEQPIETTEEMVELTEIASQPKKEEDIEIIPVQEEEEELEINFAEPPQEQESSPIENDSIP
# EXPERIMENTAL_DETAILS: cell-based or functional assay

BINDER	ADCC Maximum killing (%)
PMX069 (antibody, V domains shown) VH: EMQLVESGGALVKPGGSLRLSCVASGFTFRRYHMSWVRQAPGQGLQWVAYIDSDGSPTSYGDSVKGRFTISRDNAKNTLFLQMNSLRVDDTAVYYCTTLDYWGRGTLVTVSS VL: SYVLTQVPSKNVTLKQPAHITCGGDNIGGKSVHWYQQKLGQAPLLIIYYDTRRPTGIPERFSGANSGNTATLTISRALAEDEADYYCQVWDSSGNVFGGGTHLTVI	38%
PMX076 (antibody, V domains shown) VH: EVQLVESGGDLVKPGGSLRLSCVASGITFSRYYMNWVRQAPGKGLQWVAYIDSGGSPTTYADAVKGRFTISRDNAKKALYLQMNSLRAEDTAVYYCTSFDYWGQGTLVTVSS VL: SYVLTQLPSKNVTLKQPAHITCGGDNIGSKSVHWYQQKLGQAPVLIIYYDSSRPTGIPERFSGANSGNTATLTISGALAEDEADYFCQVWDSSANVFGGGTHLTVL	49%
PMX077 (antibody, V domains shown) VH: EVQLVESGGDLVKPGGSLRLSCVASGITFSRYYMNWVRQAPGKGLQWVAYINSGGSPTTYADAVKGRFTISRDNAKNTLYLQMNSLRAEDTAVYYCTSFDYWGQGTLVTVSS VL: SYVLTQLPSKNVTLKQPAHITCGGDNIGSKSVHWYQQKLGQAPILIIYYDTSRPTGIPERFSGANSGNTATLTISGALAEDEADYYCQVWDSSANVFGGGTHLTVL	42%
